# tgt: UniProt:Q923Y8
# Sequence (Q923Y8 whole entry): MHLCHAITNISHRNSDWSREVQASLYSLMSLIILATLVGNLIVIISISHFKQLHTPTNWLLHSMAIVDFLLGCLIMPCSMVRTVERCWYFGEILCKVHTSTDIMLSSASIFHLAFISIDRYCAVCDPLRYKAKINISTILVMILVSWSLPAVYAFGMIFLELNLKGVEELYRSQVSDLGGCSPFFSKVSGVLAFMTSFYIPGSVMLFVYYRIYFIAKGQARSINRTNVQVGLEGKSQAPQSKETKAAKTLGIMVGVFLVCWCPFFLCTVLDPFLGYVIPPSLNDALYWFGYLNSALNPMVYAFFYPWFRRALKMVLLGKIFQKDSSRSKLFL
# test details: Agonist activity at mouse TAAR1 expressed in HEK293 cells coexpressing cAMP BRET biosensor assessed as induction of CAMP production after 20 mins by bioluminescence resonance energy transfer assay relative to control
# Assay type: functional, cell-based
Task for the reader: assign each of the following compounds its reported Emax.
Answers are plain numbers, in %.

Please review the following examples before continuing.
>  <structure notation>
Cc1cc(OCCN)ccc1Cc1ccc(N)cc1

>  <measure unit>
%

>  <value observed>
75

$$$$
>  <structure notation>
NCCOc1ccc(Cc2ccc(O)cc2)cc1

>  <measure unit>
%

>  <value observed>
80

$$$$
>  <structure notation>
NCCOc1ccc(Cc2ccc(N)cc2)cc1

>  <measure unit>
%

>  <value observed>
40

$$$$

Switching to the query record.
Query: Which measured Emax value corresponds to NCCc1ccc(Cc2ccc(N)cc2)cc1 ?
Result: 100
